Test system: K562
assay_remarks: NCI tumour cell line growth inhibition, 48 h
Activity calls are given as the source filed them. Rule as the data show it: active = GI50 up to about 1.1 µM and inactive = higher.
Classes used: active, inactive

| compound | classification |
| --- | --- |
| COc1cc(CNc2nc3ccccc3n2Cc2ccccc2)cc(CN2CCOCC2)c1O | inactive |
| Cc1ccc(NC(=S)NNC(=O)c2cc(-c3ccccc3)nc3ccccc23)cc1 | inactive |
| CN(C)Cc1cc(/N=N/c2ccc(Cl)c(Cl)c2)ccc1O | inactive |
| COc1ccc(N2C(=O)C3C=CC(n4[nH]c(=O)n(Cc5ccccc5)c4=O)CC3C2=O)cc1 (stereo not given) | inactive |
| C=C(C)[C@H]1Cc2c(ccc3c2O[C@@H]2COc4cc(OC)c(OC)cc4[C@@H]2C3=O)O1 [ROTENONE] | active |
| CCCCCCCCCCCCCCCCOC(=O)c1cc(O)cc(C(=O)OCCCCCCCCCCCCCCCC)c1 | inactive |
| Cc1c(-c2ccccc2)n(C)c2cn[nH]c(=O)c12 | inactive |
| CCCc1nc(NC#N)nc(C(=O)Nc2ccccc2)c1CC | inactive |
| CC1(C)C2CCC3(OCCO3)C1C(O)C2 (stereo not given) | inactive |
| CCOC(=O)C(Cc1ccc2c(c1)CCC2)Cc1ccc2c(c1)CCC2 | inactive |
| Cc1ccc(N(C=O)c2c([N+](=O)[O-])cc([N+](=O)[O-])c3c2=[N+]([O-])CN=3)cc1 | inactive |
| CCOC(=O)[C@@H]1C[C@@H]1c1ccc(O)c(O)c1 | inactive |
| O=c1[nH]cnc2c1ncn2C1SC(CO)C(O)C1O (stereo not given) | inactive |
| CC1CC[C@@]2(OC1)OC1C[C@H]3[C@@H]4CCC5CC(O)CC[C@]5(C)[C@H]4C/C(=N\N(C)C)[C@]3(C)C1[C@@H]2C (stereo not given in full) | inactive |
| Cn1c2ccccc2n2c3ncccc3c(=O)c(C#N)c12 | inactive |
| Cc1cc(C)c([S@@](=O)O[C@@H]2[C@H]3OC(C)(C)O[C@H]3O[C@@H]2[C@H]2COC(C)(C)O2)c(C)c1 | inactive |
| NC(CSCc1ccc(I)cc1)C(=O)O (stereo not given) | inactive |
| CC(C)(Oc1ccc(C(=O)c2ccc(Cl)cc2)cc1Cl)C(=O)N1CCN(CCO)CC1 | inactive |
| CC(=O)O/C=C\OC1CCCC1(c1ccccc1)c1ccccc1 (stereo not given) | inactive |
| COc1cc(-c2cc(=O)c3c(OC)c(OC)c(OC)c(OC)c3o2)cc(OC)c1OC [HEPATAMETHOXYFLAVONE] | inactive |
